- Assay Context: in n-propanol, 333.15 K
Recorded Metric: solubility (mole fraction)
Just the number, please, no unit after it.

Consider the compound shown here: O=C(O)CNC(=O)C(=O)NCC(=O)O What is its recorded solubility (mole fraction)?
0.000355

====

- Assay Context: in ethanol, 318.15 K
Recorded Metric: solubility (mole fraction)
Keep the answer to the number alone.

Name the reported solubility (mole fraction) value associated with the molecule O=C(O)CNC(=O)C(=O)NCC(=O)O
0.000216

====

- Assay Context: in n-propanol, 308.15 K
Recorded Metric: solubility (mole fraction)
// no unit string in output, number only

For O=C(O)CNC(=O)C(=O)NCC(=O)O , what is its reported solubility (mole fraction)?
2.06e-05
